biological target: purified human spectrin (Sigma) (human) (UniProt P02549); assay: ELISA; spectrin coated on the plate; serially diluted His-tagged protein in PBS, overnight at 4 °C; detected with anti-His tag antibody; Scatchard analysis
measurement_label: Kd (nM)
Write the value in nM as a bare number.

Look up Kd for this substance: His-tagged recombinant SURFIN4.2 WRD2 (second tryptophan-rich domain of SURFIN4.2, amino acids 1349-1567), expressed in E. coli (domain or fragment)
510

---

biological target: F-actin (G-actin from Cytoskeleton polymerized to F-actin); test: co-sedimentation; Actin Binding Protein Spin-Down Assay kit; F-actin (7 μM) incubated with His-tagged protein (SURFIN4.2^WRD2-His 12.5 to 0.0 μM; His control 7.0 μM; Pf332^WRD 4.2 μM) at room temperature 30 min; 150,000×g 1.5 h at 24 °C; Western blot of supernatant and pellet, densitometry, one-site specific binding model
measurement_label: pKd
Conceptually, pKd converts a concentration in mol/L into minus its log10.

Provide the documented pKd with F-actin (G-actin from Cytoskeleton polymerized to F-actin) as the system for His-tagged recombinant SURFIN4.2 WRD2 (second tryptophan-rich domain of SURFIN4.2, amino acids 1349-1567), expressed in E. coli (domain or fragment)
5.29
